Biological target: human PD-1 expressed on cells (human, UniProt Q15116 25-288)
Sequence (Q15116 25-288): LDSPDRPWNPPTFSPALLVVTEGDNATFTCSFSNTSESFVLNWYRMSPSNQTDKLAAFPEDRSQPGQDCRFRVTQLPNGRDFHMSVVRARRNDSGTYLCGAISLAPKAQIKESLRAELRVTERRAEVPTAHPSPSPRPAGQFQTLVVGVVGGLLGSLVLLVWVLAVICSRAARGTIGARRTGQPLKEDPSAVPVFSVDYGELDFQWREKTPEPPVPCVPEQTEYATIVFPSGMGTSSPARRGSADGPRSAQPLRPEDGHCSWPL
Assay: FACS
QUANTITY_MEASURED: EC50

Supply recorded EC50 for 1.49.9 hAb (antibody, V domains shown) VH: QLQLQESGPGLVKPSETLSLTCTVSGGSISSSTYYWGWIRQPPGKGLEWIGSISYSGSTYYNPSLKSRVTISVDTSKNQFSLKLSSVTDADTAVYYCARHLGYNGRYLPFDYWGQGTLVTVSS VL: QSALTQPASVSGSPGQSITISCTGTSSDVGFYNYVSWYQQHPGKAPEVMIYDVSNRPSGVSDRFSGSKSGNTASLTISGLQAEDEADYYCSSYTSISTWVFGGGTKLTVL here. 2.15 nM
